Target: SNAP-hSPR (sepiapterin reductase, SPR) (Homo sapiens, UniProt P35270)
Sequence (P35270 whole entry): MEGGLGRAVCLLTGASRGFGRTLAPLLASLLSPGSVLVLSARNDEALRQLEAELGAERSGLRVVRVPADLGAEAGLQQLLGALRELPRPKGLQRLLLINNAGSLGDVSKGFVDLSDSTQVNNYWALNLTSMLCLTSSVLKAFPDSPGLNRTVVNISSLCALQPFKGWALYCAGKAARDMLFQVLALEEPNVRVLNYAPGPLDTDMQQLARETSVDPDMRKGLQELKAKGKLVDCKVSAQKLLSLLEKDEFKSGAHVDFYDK
attributeMeasured: log10(IC50) (log10 of the value in nM)
All values: base-10 log of IC50 in nM.

Here are 10 compounds together with their reported answers.
>>> assayvalue("Cc1cc(=O)[nH]c(-n2ncc(C(=O)N3CCc4ccccc4C3)c2Cc2ccccc2)n1")
2.00
>>> assayvalue("Cc1c(C(=O)N(C)C2CCCCC2)cnn1-c1nc2c(c(=O)[nH]1)CCC2")
0.90
>>> assayvalue("Cc1c(C(=O)N2CC3CC(C2)N3CC(F)(F)F)cnn1-c1nn2cccc2c(=O)[nH]1")
0.00
>>> assayvalue("Cc1c(C(=O)N2CCN(S(=O)(=O)c3ccc(Cl)c4nonc34)CC2)cnn1-c1nn2cccc2c(=O)[nH]1")
1.00
>>> assayvalue("O=C(c1cnn(-c2nn3cccc3c(=O)[nH]2)c1)N1CCC(C(F)(F)F)CC1")
0.30
>>> assayvalue("CCC(=C1CCN(C(=O)c2cnn(-c3nn4cccc4c(=O)[nH]3)c2C)CC1)C(F)(F)F")
0.30
>>> assayvalue("Cc1c(C(=O)N2CC3(CCCC3)C2)cnn1-c1nn2cccc2c(=O)[nH]1")
0.00
>>> assayvalue("CCC(C#N)C1(O)CCN(C(=O)c2cnn(-c3nn4cccc4c(=O)[nH]3)c2C)CC1 (centres unmarked)")
0.00
>>> assayvalue("Cc1cc(=O)[nH]c(-n2ncc(C(=O)N3c4ccccc4C[C@@H]3C)c2C)n1 (single isomer, unassigned)")
0.70
>>> assayvalue("Cc1c(C(=O)N2c3ccccc3C[C@@H]2C)cnn1-c1nc2ccsc2c(=O)[nH]1 (single isomer, unassigned)")
1.48

Just so you know, measured log10(IC50) for "Cc1c(C(=O)N2CCC(CC(F)(F)F)CC2)cnn1-c1nc2ccsc2c(=O)[nH]1" came out at 0.30

Just so you know, measured log10(IC50) for "Cc1cc(=O)[nH]c(-n2ncc(C(=O)N3CCN(c4ccccn4)CC3)c2C)n1" came out at 0.70

Just so you know, measured log10(IC50) for "Cc1c(C(=O)N2CCN(S(=O)(=O)c3cccc4ccccc34)CC2)cnn1-c1nn2cccc2c(=O)[nH]1" came out at 0.00

====

This document collects pIC50 values reported for SNAP-hSPR (sepiapterin reductase, SPR) (Homo sapiens, UniProt P35270).
A value of pIC50 is the negative decimal logarithm of a concentration given in moles per litre.

Here are 6 compounds together with their reported answers.
>>> assayvalue("Cc1c(C(=O)N2CCN(c3ncc(-c4ccc(C(F)(F)F)cc4)o3)CC2)cnn1-c1nn2cccc2c(=O)[nH]1")
7.70
>>> assayvalue("Cc1c(C(=O)N2CC3CC3(O)C2)cnn1-c1nc2c(c(=O)[nH]1)CCC2 (centres unmarked)")
8.00
>>> assayvalue("CCCN(CC)C(=O)c1cnn(-c2nc(C)cc(=O)[nH]2)c1C")
8.00
>>> assayvalue("Cc1c(C(=O)N2CCc3[nH]ncc3C2)cnn1-c1nn2cccc2c(=O)[nH]1")
8.52
>>> assayvalue("Cc1c(C(=O)N2CCN(c3ncc(-c4ccc(C#N)cc4)s3)CC2)cnn1-c1nn2cccc2c(=O)[nH]1")
8.00
>>> assayvalue("Cc1cc(=O)[nH]c(-n2nc(C)c(CCC(=O)N3CCCC3)c2C)n1")
7.22

Just so you know, measured pIC50 for "Cc1c(C(=O)N2CCC(c3cn(C)c4ccccc34)CC2)cnn1-c1nc2c(c(=O)[nH]1)CCC2" came out at 7.70

Just so you know, measured pIC50 for Cc1c(C(=O)N2CCC3OCCCC3C2)cnn1-c1nc2c(c(=O)[nH]1)CCC2 (centres unmarked) came out at 8.22

Just so you know, measured pIC50 for "C=C1C2CCCC1CN(C(=O)c1cnn(-c3nn4cccc4c(=O)[nH]3)c1C)C2" came out at 9.00

====

Biological target: SNAP-hSPR (sepiapterin reductase, SPR) (Homo sapiens, UniProt P35270)
pIC50: −log10 of the molar value.
Outcome label depends on pIC50 relative to 8: at/above gives label 1, below gives label 0.

>>> classassignment("Cc1c(C(=O)N2CC(N3CCC(F)(F)C3)C2)nnn1-c1nn2cccc2c(=O)[nH]1 [Q-1185]")
"label 1"
>>> classassignment("O=C(c1ccn(-c2nc3ccsc3c(=O)[nH]2)n1)N1CCc2ccccc2C1 [Q-0388]")
"label 0"
>>> classassignment("Cc1c(C(=O)N2CCC(C(F)F)CC2)cnn1-c1nc2c(c(=O)[nH]1)CCC2 [Q-1049]")
"label 1"
>>> classassignment("Cc1c(C(=O)N2CCN(C(=O)OC(C)(C)C)CC2)cnn1-c1nn2cccc2c(=O)[nH]1 [Q-0750]")
"label 1"
>>> classassignment("Cc1c(C(=O)N2CC3(C2)CC(F)(F)C3)cnn1-c1nc2[nH]ncc2c(=O)[nH]1 [Q-1295]")
"label 0"

stdin: Identify whether the reported pIC50 of the following molecule is 8 or greater: Cc1c(C(=O)N2CC3C(C2)C3(C)C)cnn1-c1nc2c(c(=O)[nH]1)CCC2 (centres unmarked) [Q-1048]
stdout: label 1

stdin: Identify whether the reported pIC50 of the following molecule is 8 or greater: Cc1c(C(=O)N2CCN(c3ncc(-c4ccncc4)s3)CC2)cnn1-c1nn2cccc2c(=O)[nH]1 [Q-1235]
stdout: label 1

====

This document collects pIC50 values reported for SNAP-hSPR (sepiapterin reductase, SPR) (Homo sapiens, UniProt P35270).
A value of pIC50 is the negative decimal logarithm of a concentration given in moles per litre.

>>> assayvalue("Cc1c(C(=O)N2CCC(C(F)(F)F)CC2)cnn1-c1nc2nc[nH]c2c(=O)[nH]1")
5.82
>>> assayvalue("COC1(C)CCN(C(=O)c2cnn(-c3nc4c(c(=O)[nH]3)CCC4)c2C)CC1")
8.52
>>> assayvalue("O=C(c1cnn(-c2nc3sccc3c(=O)[nH]2)c1)N1CCC(C2CC2)CC1")
8.52

# context switch: different compound, same pIC50
Recorded pIC50 for "Cc1c(C(=O)N2CCN3CCC[C@@H]3C2)cnn1-c1nc2ccsc2c(=O)[nH]1" on SNAP-hSPR (sepiapterin reductase, SPR) (Homo sapiens, UniProt P35270) was 8.15

====

This document collects IC50 values reported for SNAP-hSPR (sepiapterin reductase, SPR) (Homo sapiens).

Just so you know, measured IC50 for "Cc1c(C(=O)N2CCC(C(F)(F)F)CC2)cnn1-c1nc2ccccc2c(=O)[nH]1" came out at 100 nM

====

Biological target: SNAP-hSPR (sepiapterin reductase, SPR) (Homo sapiens, UniProt P35270)
In plain terms, low IC50, meaning strictly below 5 nM, gives 1, and everything else gives 0.

Example entries begin here.
>>> classassignment("O=C(c1cnn(-c2nc3c(c(=O)[nH]2)CCC3)c1C1CC1)N1CCC(C(F)(F)F)CC1")
1
>>> classassignment("Cc1c(C(=O)N2CCC(C(F)(F)F)CC2)cnn1-c1nc2[nH]ccc2c(=O)[nH]1")
0
>>> classassignment("Cc1cc(=O)[nH]c(-n2ncc(C(=O)N(C)C)c2C)n1")
0
>>> classassignment("O=C(c1cnn(-c2nc3sccc3c(=O)[nH]2)c1)N1CCC(C(F)(F)F)CC1")
1
>>> classassignment("Cc1c(C(=O)N2CCN(S(=O)(=O)c3ccc(F)c(Cl)c3)CC2)cnn1-c1nn2cccc2c(=O)[nH]1")
1

stdin: Given "Cc1c(C(=O)O)cnn1-c1nc2c(c(=O)[nH]1)CC(C)(C)C2" , is recorded IC50 strictly lower than 5 nM?
stdout: 0

stdin: Given "Cc1c(C(=O)N2CCC(c3c[nH]c4ccccc34)CC2)cnn1-c1nc2c(c(=O)[nH]1)CCC2" , is recorded IC50 strictly lower than 5 nM?
stdout: 0

====

This document collects IC50 values reported for UniProtKB P35270.
Report as a plain number; the unit nM is understood.

>>> assayvalue("Cc1c(C(=O)N2CCC2c2cccc(F)n2)cnn1-c1nn2cccc2c(=O)[nH]1 (centres unmarked)")
3

Recorded IC50 for "Cc1c(C(=O)N2CC3(C2)CC(F)(F)C3)cnn1-c1nc2[nH]ccc2c(=O)[nH]1" on UniProtKB P35270 was 100

Recorded IC50 for "Cc1c(C(=O)N2CCC(c3ccc(F)nc3)CC2)cnn1-c1nn2cccc2c(=O)[nH]1" on UniProtKB P35270 was 1

Recorded IC50 for "Cc1c(C(=O)N2C3CCC2CN(C2CCC2)C3)cnn1-c1nn2cccc2c(=O)[nH]1" on UniProtKB P35270 was 1

Recorded IC50 for "Cc1c(C(=O)N2CC(N3CC(C(F)(F)F)C3)C2)cnn1-c1nn2cccc2c(=O)[nH]1" on UniProtKB P35270 was 4

Recorded IC50 for "Cc1cc(-c2c(C)nn(CCC(=O)N3CCc4ccccc4C3)c2C)[nH]c(=O)n1" on UniProtKB P35270 was 40000

Recorded IC50 for "COC1(c2ccccc2)CCN(C(=O)c2cnn(-c3nc4c(c(=O)[nH]3)CCC4)c2C)CC1" on UniProtKB P35270 was 7

Recorded IC50 for "Cc1cc(=O)[nH]c(-n2ncc(C(=O)NCCC(F)(F)F)c2C)n1" on UniProtKB P35270 was 70
